READOUT_LABEL: melting point

| ENTRY_SMILES | VALUE |
| --- | --- |
| C[C@@H](CO)NS(=O)(=O)c1ccc2c(c1)c1nnn(C)c1n2-c1ccc(C(F)(F)F)cc1 | 232 to 234 °C |
| C=CC(=O)NCc1ccc2c(c1)c1cn(C)nc1n2-c1ccc(C(F)(F)F)cc1 | 185 to 187 °C |
| Cn1cc2c3cc(C(=O)NC4CC4)ccc3n(-c3ccc(C(F)(F)F)nc3)c2n1 | 300 °C |
| Cn1cc2c3cc(C(=O)O[C@@H]4O[C@H](C(=O)O)[C@@H](O)[C@H](O)[C@H]4O)ccc3n(-c3ccc(C(F)(F)F)cc3)c2n1 | 110 to 111 °C |
| CCOc1ccc(-n2c3ccc(C(=O)O)cc3c3cn(C)nc32)cc1 | 179 to 181 °C |
| COC(=O)c1ccc2c(c1)c1nn(C)cc1n2-c1ccc(C(F)(F)F)cc1 | 111 to 112 °C |
| Cn1cc2c(n1)c1cc(C#N)ccc1n2-c1ccc(C(F)(F)F)cc1 | 208 to 210 °C |
| Cc1nc2c(s1)c1cc(C(=O)O)ccc1n2-c1ccc(C(F)(F)F)cc1 | 169 to 171 °C |
| C=CC(=O)Nc1ccc2c(c1)c1cn(C)nc1n2-c1ccc(C(F)(F)F)cc1 | 223 to 224 °C |
| Cn1cc2c3cc(C(=O)NCc4ccncc4)ccc3n(-c3ccc(C(F)(F)F)cc3)c2n1 | 181 to 185 °C |
| Cn1cc2c3cc(CNC(=O)CCl)ccc3n(-c3ccc(C(F)(F)F)cc3)c2n1 | 221 to 222 °C |

* * *

- Test system: NCI-H226 cells
- TEST_NAME: Viability assay in NCI-H226 (Yap-dependent) cells, CyQuant
- Assay type: cell-based, human
- ASSAY_SETUP: Homo sapiens, 96 h, class symbols
READOUT_LABEL: IC50

| ENTRY_SMILES | READOUT_LABEL | VALUE |
| --- | --- | --- |
| Cn1cc2c3cc(CNC(=O)CCl)ccc3n(-c3ccc(C(F)(F)F)cc3)c2n1 | IC50 | 100 to 1000 nM |

This collection of values is drawn from patent US20240270748A1.
